Recorded values, source ChEMBL document CHEMBL1123324.

Tested on: Nucleic Acid
protocol notes: Concentration at which the fluorescence of an ethidium-DNA complex was reduced by 50%
Assay type: nucleic-acid assay
Could you please report measured C50 for the items listed next?
Answers are plain numbers, in nM.

As a guide, the following entries are already answered.
>  <smiles str>
CCN(CC)CC[n+]1ccc2c(C)c3[nH]c4ccccc4c3c(C)c2c1

>  <test target>
Nucleic Acid

>  <test value>
159

$$$$
>  <smiles str>
CCN(CC)CCn1c2ccccc2c2c(C)c3cnccc3c(C)c21

>  <test target>
Nucleic Acid

>  <test value>
106

$$$$
>  <smiles str>
Cc1c2cnccc2c(C)c2c1c1ccccc1n2CCN1CCCCC1

>  <test target>
Nucleic Acid

>  <test value>
122

$$$$
>  <smiles str>
Cc1c2cnccc2c(C)c2c1c1ccccc1n2C

>  <test target>
Nucleic Acid

>  <test value>
454

$$$$
>  <smiles str>
Cc1c2ccncc2c(C)c2c1[nH]c1ccccc12

>  <test target>
Nucleic Acid

>  <test value>
1040

$$$$

Moving on to the next molecule.
Exercise: // C50 lookup, key: Cc1c2cnccc2c(C)c2c1c1ccccc1n2CCN1CCOCC1
Key: 440
